Measured values drawn from patent US11873298B2 for this set.

Target: SCD1 (Homo sapiens)
Construct: host or cells: S. cerevisiae ole1Δ strain (W303 pdr1Δ pdr3Δ background), plasmid pRS316 with TDH3 promoter and CYC1 terminator
Sequence (O00767 whole entry): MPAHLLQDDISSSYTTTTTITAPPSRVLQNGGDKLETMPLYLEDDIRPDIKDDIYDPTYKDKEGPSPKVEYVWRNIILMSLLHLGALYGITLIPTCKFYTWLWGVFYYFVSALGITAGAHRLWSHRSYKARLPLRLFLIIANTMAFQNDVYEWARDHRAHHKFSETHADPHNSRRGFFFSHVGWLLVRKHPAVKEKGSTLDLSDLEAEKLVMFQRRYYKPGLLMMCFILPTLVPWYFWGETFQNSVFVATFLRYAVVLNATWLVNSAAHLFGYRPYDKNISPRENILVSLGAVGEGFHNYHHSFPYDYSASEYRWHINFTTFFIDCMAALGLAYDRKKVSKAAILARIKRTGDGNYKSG
Test: Growth inhibition of humanized yeast strain expressing SCD1 as sole desaturase
Format: cell-based
Settings: humanized yeast strain, 40 h
pIC50: −log10 of the molar value.
Collected pIC50 values appear next to each entry.

- compound: "COC(=O)N1CCC(c2noc(-c3ccccc3N3CCOCC3)n2)CC1"
  pIC50: 4.81
- compound: "C[C@@H]1C[C@H](c2noc(-c3ccc4cnn(C5COC5)c4c3)n2)CCN1C(=O)OC(C)(C)C"
  pIC50: 4.77
- compound: "O=C(N1CCN(c2nnc(-c3ccc4cnn(C5COC5)c4c3)o2)CC1)C12CC(C1)C2"
  pIC50: "< 4.35"
- compound: "O=C(C1CCC1)N1CCN(c2nnc(-c3ccc4cnn(C5COC5)c4c3)o2)CC1"
  pIC50: "< 4.35"
- compound: "C[C@H]1C[C@H](c2noc(-c3ccc4cnn(C5COC5)c4c3)n2)CCN1C(=O)OC(C)(C)C"
  pIC50: 4.69
- compound: "CC(C)(C)OC(=O)N1CCC(c2noc(-c3ccnc(OC4COC4)c3)n2)CC1"
  pIC50: 8.00
- compound: "CCC(=O)N1CCC(c2cc(-c3cc4c(cn3)cnn4C(C)C)no2)CC1"
  pIC50: "< 4.35"
- compound: "CC1(C(=O)N2CCC(c3noc(-c4ccnc(C5CCOC5)c4)n3)CC2)CC1 (stereo not shown)"
  pIC50: "< 4.35"
- compound: "CC(C)(C)OC(=O)N1CCC(c2noc(-c3ccc4cnn(C5COC5)c4c3F)n2)CC1"
  pIC50: "< 4.35"
- compound: "C=C(C)c1nccn2cc(-c3nc(C4CCN(C(=O)OC(C)(C)C)CC4)no3)cc12"
  pIC50: "< 4.35"
- compound: "O=C(OC1CC1)N1CCC(c2noc(-c3cc(F)c4cnn(C5COC5)c4c3)n2)CC1"
  pIC50: "< 4.35"
- compound: "COC(=O)N1CCC(c2noc(-c3ccc4cnn(C5COC5)c4c3F)n2)CC1"
  pIC50: "< 4.35"
- compound: "CC(C)(C)OC(=O)N1CCC(c2noc(-c3ccc4cnn(C5CNC5)c4c3)n2)CC1"
  pIC50: "< 4.35"
- compound: "COC(=O)N1CCN(c2noc(-c3ccc4cnn(C5CS(=O)(=O)C5)c4c3)n2)CC1"
  pIC50: "< 4.35"
- compound: "CCC1(C(=O)N2CCC(c3noc(-c4ccc5cnn(C6COC6)c5c4)n3)CC2)CC1"
  pIC50: 6.51
- compound: "O=C(N1CCN(c2noc(-c3ccc4cnn(C5COC5)c4c3)n2)CC1)C12CC(C1)C2"
  pIC50: "< 4.35"
